Each recorded value in this set is attributed to ChEMBL document CHEMBL1135863.

- Test system: 1A9
- RUN_DESCRIPTION: Cytotoxicity against ovarian cancer cell line (1A-9) of humans was determined
- Type: functional, cell-based
- ASSAY_CONDITIONS: Homo sapiens
MEASURE_NAME: pIC50
Keep it numeric: pIC50 is minus log10 of the concentration in mol/L.

Some entries whose results are on file:
COc1ccc2c(c1)[C@@H]1O[C@@H]1Cc1cc(OC)c(OC)c(OC)c1-2    7.09
COc1ccc2c(c1)[C@@H](NC(=O)CCl)CCc1cc(OC)c(OC)c(OC)c1-2    8.57
COc1ccc2c(c1)C=CCc1cc(OC)c(OC)c(OC)c1-2    7.22

Next molecule, pIC50 to be filled in.
Prompt: Reported pIC50 for COc1cc2c(c(OC)c1OC)-c1ccc(OC)c(=O)cc1[C@@H](NC(C)=O)CC2 : what is it?
Response: 7.92
